System: P-gp (human MDR1)
Test: MDR1-MDCK two-way permeability assay
Format: in vitro ADME, canine
Details: dog, MDCK-MDR1, A-B, pH 7.4
Excerpt: In this study, the MDR1-MDCKII cell line authorized by the Piet Borst Laboratory of the Netherlands Cancer Institute was used as the in vitro model. It is a Madin-Darby canine kidney cell transfected with human multiple drug resistance gene (MDR1). […]
Counter-ions that a name gives are not always drawn.

compound: CC/C(=C(/c1ccc(OCCNC/C=C/C(=O)N(C)C)nc1)c1[nH]c2ccccc2c1Cl)c1ccccc1 [Compound 3 monohydrochloride]
Papp A→B at 2.5 h, 2 μM (×10⁻⁶ cm/s): 0.44

Value source: patent US12221432B2
